Measured on: T1, HLA-A*02:01 (human)
T1 construct: MHC monomers first loaded with a UV-sensitive peptide (not identified) that is cleaved by UV light and exchanged for the test peptide; captured on streptavidin plates, detected with anti-β2m; also called peptide-receptive MHC molecules; MHC class I
Procedure summary: UV-ligand exchange + anti-b2m ELISA; peptide exchange yield grade (+ >=10%, ++ >=20%, +++ >=50, ++++ >=75%)
Attribute measured: peptide exchange yield

# annotated cases, reported peptide exchange yield shown
>  <Binder>
ILAQQVHAL (source gene KIF12) [ILAQQVHAL (SEQ ID NO: 17)]

>  <peptide exchange yield>
50 to 75%

$$$$
>  <Binder>
ALDPSGNQLI (source gene SEMA5B) [ALDPSGNQLI (SEQ ID NO: 12)]

>  <peptide exchange yield>
20 to 50%

$$$$
>  <Binder>
SLSDLLVSL (source gene OPN3) [SLSDLLVSL (SEQ ID NO: 27)]

>  <peptide exchange yield>
50 to 75%

$$$$
>  <Binder>
LLVPAHLVAA (source gene ESM1) [LLVPAHLVAA (SEQ ID NO: 25)]

>  <peptide exchange yield>
20 to 50%

$$$$
>  <Binder>
ALLTETIFL (source gene LRRK2) [ALLTETIFL (SEQ ID NO: 14)]

>  <peptide exchange yield>
20 to 50%

$$$$

Write down peptide exchange yield measured for item VLADDHLIEV (source genes PDZK1P2, PDZK1, PDZK1P1) [VLADDHLIEV (SEQ ID NO: 76)]
20 to 50%

Write down peptide exchange yield measured for item ALAVNISAA (source gene CCT6A) [ALAVNISAA (SEQ ID NO: 114)]
50 to 75%

Write down peptide exchange yield measured for item LLFDVHTTL (source gene C5orf42) [LLFDVHTTL (SEQ ID NO: 102)]
50 to 75%
